Molecular target: Gal(b1-3)[Fuc(a1-4)]GlcNAc(b1-3)Gal(b1-3)[Fuc(a1-4)]GlcNAc
Test: glycan array binding signal (z-score within array); higher = stronger binding
Conditions: glycan notation: IUPAC condensed, linker removed
The entries come from a sample that favours the strongest signals as a whole.
quantity-name: glycan array binding signal (z-score)

Query :: Consider the binder Cohesin-mDCIR (Macaca mulatta) (protein) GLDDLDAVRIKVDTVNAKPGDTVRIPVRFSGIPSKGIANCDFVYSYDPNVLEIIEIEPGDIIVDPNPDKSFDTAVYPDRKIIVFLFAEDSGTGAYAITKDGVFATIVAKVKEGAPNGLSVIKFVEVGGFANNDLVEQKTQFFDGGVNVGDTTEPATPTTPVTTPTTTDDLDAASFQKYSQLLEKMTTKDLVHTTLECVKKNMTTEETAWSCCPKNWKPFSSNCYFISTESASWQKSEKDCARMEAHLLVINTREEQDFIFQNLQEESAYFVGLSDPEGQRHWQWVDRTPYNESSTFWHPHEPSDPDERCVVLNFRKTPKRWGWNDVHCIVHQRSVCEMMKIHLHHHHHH . State its measured glycan array binding signal (z-score).
Result :: 4.89
